Tested on: Key Grass and Sedge Weeds as well as Grass Crops
Test method notes: Post-emergent Test II herbicidal activity (Table 6)
Type: in vivo
Conditions: post-emergence, 336 h, CYPES: yellow nutsedge (Cyperus esculentus), application rate 70 g ai/ha, read-out: Visual Growth Reduction (%) 14 Days After Application, CYPES
Quantity: pest or weed control at 70 g/ha

COc1c(N)nc(-c2cc(F)c(C(F)F)cc2F)nc1C(=O)O [Compound 203]; 0 to 29%
Nc1c(Cl)c(C(=O)O)nc(-c2ccc(Br)c(F)c2)c1Cl [Compound 43]; 95 to 100%
Cc1c(-c2ccc(Br)cc2)nc(C(=O)O)c(Cl)c1N [Compound 78]; 0 to 29%
C#Cc1ccc(-c2nc(C(=O)O)c(C=C)c(N)c2F)cc1 [Compound 36]; 0 to 29%
Nc1c(F)c(-c2cc(F)c(C(F)F)cc2F)nc(C(=O)O)c1Cl [Compound 178]; 85 to 94%
COC(=O)c1nc(-c2cc(F)c(C(F)F)cc2F)c(F)c(N)c1Cl [Compound 176]; 85 to 94%

Recorded pest or weed control at 70 g/ha (compound C=Cc1c(N)nc(-c2ccc(C(F)(F)F)c(F)c2)nc1C(=O)O [Compound 32] ): 0 to 29%

// pest or weed control at 70 g/ha value for COc1c(N)nc(-c2ccc(Br)c(F)c2)nc1C(=O)O [Compound 113] : 95 to 100%

What the record says about Nc1cc(-c2cc(F)c(Br)cc2F)nc(C(=O)O)c1Cl [Compound 3] : pest or weed control at 70 g/ha is 95 to 100%

The reported measurements were obtained from patent US9113629B2.
